Test: E. coli growth modulation, two-sided OD650, primary screen, E. coli filamentation project, strain DRC41, 24 h (AID 1093);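 further: MC1000 strain lacking acrAB efflux and sulA so SOS filamentation is blocked; test concentration not given here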
Settings: OD650, 24 h, higher = more signal, called active from +8 up or from −8 down
Activity calls are given as the source filed them.
Consider the following compounds; for each one, report its z-score.

Ask: Need z-score of COc1ccc(C#Cc2ccc3c(c2)[C@]2(C(=O)N3)[C@H](C(=O)NC[C@H](O)c3ccccc3)[C@H]3C(=O)O[C@H](c4ccccc4)[C@H](c4ccccc4)N3[C@@H]2c2ccc(O)cc2)cc1 , thanks.
Reply: -0.0198 (inactive)

Ask: Field entry: CNS(=O)(=O)c1ccc(C)cc1
Reply: 2.55 (inactive)

Ask: What do we get for CN(C)CCCC[C@@H]1NC(=O)[C@@H]2C[C@H](C(=O)NCCCCCCN)[C@H](c3cccc(OCCO)c3)N2C1=O ?
Reply: 0.26 (inactive)

Ask: And what about the compound CO[C@H]1O[C@H](CO)[C@@H](OC(=O)Nc2ccc(C(F)(F)F)cc2)[C@H](OC(=O)Nc2ccc3c(c2)OCO3)[C@@H]1OC(=O)Nc1ccc2c(c1)OCO2 ?
Reply: 2.24 (inactive)

Ask: Also C=C(CCCC)C(=O)CC[C@@H](OC(=O)c1ccccc1-c1ccccc1C(=O)O)c1ccc(OCCO)cc1 ?
Reply: 0.502 (inactive)

Ask: Field entry: O=C1C[C@@](C(=O)NCC(F)(F)F)(c2ccc([N+](=O)[O-])cc2)[C@@H](c2ccc(CO)cc2I)N1C1CCCCC1
Reply: -0.426 (inactive)

Ask: Same question, COC(=O)[C@@]1(Cc2ccc(F)cc2)[C@H]2c3cc(C(=O)N4CCCC4)n(Cc4ccc(S(C)(=O)=O)cc4)c3C[C@H]2CN1C(=O)c1ccccc1 this time
Reply: -1.02 (inactive)

Ask: What do we get for C=C(/C(=C/C[C@H](OC(C)=O)c1ccccc1OCCO)c1cnc2ccccc2c1)C(C)C ?
Reply: -0.0733 (inactive)

Ask: Then this compound: COC(=O)[C@@]1(Cc2ccc(F)cc2)[C@H]2c3cc(C(=O)N(C)C)n(Cc4ccc(Cl)c(C(F)(F)F)c4)c3C[C@H]2CN1C(=O)c1ccccc1
Reply: -0.824 (inactive)

Ask: Then what about the compound C=C[C@H](C)[C@@H](OC(=O)Nc1ccc(OC)cc1)c1ccc(O)c2ccccc12 ?
Reply: 0.431 (inactive)

Ask: Next entry: NC(=O)[C@@H]1[C@H]2C(=O)O[C@H](c3ccccc3)[C@H](c3ccccc3)N2[C@H](c2ccc(O)cc2)[C@@]12C(=O)Nc1ccccc12
Reply: 1.11 (inactive)

Ask: Query O=C1C2C=CC(C(O)CCc3ccccc3)N(Nc3ccccc3F)C2C(=O)N1c1ccccc1 (stereo not given) next
Reply: -0.0741 (inactive)

Ask: Then what about the compound COc1cc(Br)cc(C(O)C2C=CC3C(=O)N(C)C(=O)C3N2N2CCCCC2)c1OC (stereo not given) ?
Reply: -1.54 (inactive)

Ask: Quick one: O=C(NC1CC1)[C@@H]1c2ccccc2C(=O)N(Cc2ccccc2Cl)[C@H]1c1ccc(CO)cc1
Reply: 4.01 (inactive)

Ask: Again, but for CCCc1cc2c(n1Cc1cc(F)cc(F)c1)C(C)C1CN(C(=O)c3ccccc3)C(C)(C(=O)OC)C21 (stereo not given)
Reply: -0.738 (inactive)
